test system: H1N1 (influenza A/New Caledonia/20/99); assay: microbe, parasite or virus in culture; type: cell-based; conditions: Influenza A virus, H1N1, A549, 48 h
Exercise: for every item that follows, state its recorded pIC50.
# pIC50 = -log10(concentration in molar units)

Request: Which measured pIC50 value corresponds to O=C(Nc1ccc(N2CCOCC2)cc1)c1c(NC(=O)C2CCCCC2C(=O)O)sc2c1CCC2 (stereo not shown) [Compound 15] ?
Response: 4.95

Request: Field entry: O=C(Nc1ccc(Cl)cc1)c1c(NC(=O)C2CC=CCC2C(=O)O)sc2c1CCC2 (stereo not shown) [Compound 48]
Response: 4.95

Request: Quick one: O=C(O)CCC(=O)Nc1sc2c(c1C(=O)Nc1ccc(Cl)cc1)CCC2 [Compound 50]
Response: 4.48

Request: Here is the next molecule: NC(=O)C1CCCCC1C(=O)Nc1sc2c(c1C(=O)Nc1ccc(Cl)cc1)CCC2 (stereo not shown) [Compound 55]
Response: 4.57

Request: What do you get for COc1ccc(NC(=O)c2c(NC(=O)C3CCCCC3C(=O)O)sc3c2CCC3)cc1 (stereo not shown) [Compound 76] ?
Response: 4.85

Request: How about O=C(Nc1ccc(Cl)cc1)c1c(NC(=O)C2C3CCC(O3)C2C(=O)O)sc2c1CCC2 (stereo not shown) [Compound 51] ?
Response: 4.53

Request: What about this molecule? O=C(NCc1cccc(Cl)c1)c1c(NC(=O)C2CCCCC2C(=O)O)sc2c1CCC2 (stereo not shown) [Compound 11]
Response: 5.06

Request: Can you check O=C(Nc1ccc(CO)cc1)c1c(NC(=O)C2CCCCC2C(=O)O)sc2c1CCC2 (stereo not shown) [Compound 19] next?
Response: 4.51

Request: Consider next the molecule Cc1ccc(NC(=O)c2c(NC(=O)C3CC=CCC3C(=O)O)sc3c2CCCC3)cc1 (stereo not shown) [Compound 60] in the same way.
Response: 4.26

Request: Check O=C(NCc1ccccc1)c1c(NC(=O)C2CCCCC2C(=O)O)sc2c1CCC2 (stereo not shown) [Compound 63] too.
Response: 4.67

Request: Please give the result for O=C(Nc1ccc(Cl)cc1)c1c(NC(=O)C2CCCCC2C(=O)O)sc2c1CCS2 (stereo not shown) [Compound 40] too.
Response: 5.13

Request: Let us now turn to CS(=O)(=O)N1CCOCC1C(=O)Nc1sc2c(c1C(=O)Nc1ccc(Cl)cc1)CCC2 (stereo not shown) [Compound 93]
Response: 4.90

Request: Moving on to the next molecule: O=C(Nc1ccc(F)cc1)c1c(NC(=O)C2CCCCC2C(=O)O)sc2c1CCC2 (stereo not shown) [Compound 4]
Response: 4.82

Request: Lookup O=C(Nc1ccc(Cl)cc1)c1c(NC(=O)[C@H]2CCCC[C@H]2C(=O)NO)sc2c1CCC2 (stereo in doubt) [Compound 90]
Response: 5.05

Request: Field entry: CC(C)(C)C1CCc2c(sc(NC(=O)[C@H]3CCCC[C@H]3C(=O)O)c2C(=O)Nc2ccc(Cl)cc2)C1 (stereo in doubt) [Compound 79]
Response: 5.73

Request: Param item: O=C(Nc1ccccc1)c1c(NC(=O)C2CCCCC2C(=O)O)sc2c1CCC2 (stereo not shown) [Compound 74]
Response: 4.91

###

tested on: H1N1 (influenza A/New Caledonia/20/99); experiment: microbe, parasite or virus in culture; format: cell-based; details: Influenza A virus, H1N1, A549, 48 h
# note: boundary value 10 µM maps to no (0); IC50 below it maps to yes (1)

Request: Take the compound CS(=O)(=O)N1CCCCC1C(=O)Nc1sc2c(c1C(=O)Nc1ccc(Cl)cc1)CCC2 (centres unmarked) and say whether its IC50 is less than 10 µM.
Response: no (0)

Request: Try O=C(NCc1ccc(Cl)cc1)c1c(NC(=O)C2CCCCC2C(=O)O)sc2c1CCC2 (centres unmarked) next.
Response: no (0)

Request: Moving on to CC(C)c1ccc(NC(=O)c2c(NC(=O)C3CCCCC3C(=O)O)sc3c2CCC3)cc1 (centres unmarked)
Response: yes (1)

Request: What about this compound? N#Cc1ccc(NC(=O)c2c(NC(=O)C3CCCCC3C(=O)O)sc3c2CCC3)cc1 (centres unmarked)
Response: no (0)

Request: Subsequent entry: O=C(Nc1ccc(Cl)c(C(F)(F)F)c1)c1c(NC(=O)C2CCCCC2C(=O)O)sc2c1CCC2 (centres unmarked)
Response: yes (1)

Request: # repeat for O=C(Nc1ccc2c(c1)OCO2)c1c(NC(=O)C2CCCCC2C(=O)O)sc2c1CCC2 (centres unmarked)
Response: no (0)

Request: Here is the next compound: Cc1ccc(NC(=O)c2c(NC(=O)C3CCCCC3C(=O)O)sc3c2CCC3)cc1C (centres unmarked)
Response: yes (1)

Request: Also need O=C(NC1CCC(F)(F)CC1)c1c(NC(=O)C2CCCCC2C(=O)O)sc2c1CCC2 (centres unmarked) , thanks.
Response: no (0)
